test: growth inhibition of wild-type Mtb, BioA inhibitor project, biotin-free medium, plate reader, dry powder (AID 743070); conditions: M. tuberculosis wild type growth
Calls of active or inactive are those of the source. How the calls were made is not given here.
Lab note: assign the record to one of active, inactive

Field: example entries. Status: answers known.
- O=C(COc1ccc2ccc(=O)oc2c1)N1CCN(c2ccc(F)cc2)CC1: active
- Cc1cc(C)n2nc(C(=O)Nc3cccnc3)cc2n1: active
- COc1ccc(C(=O)N2CCN(c3ccc(C(C)=O)cc3)CC2)cc1: inactive
- O=C(Nc1ccc(Cl)c(-c2nc3ccccc3[nH]2)c1)c1cccnc1: active
- O=C(Nc1ccccc1)N1CCN(c2ccccc2)CC1: active

Next:
Tell me the recorded outcome of this test for CC(=O)c1ccc(N2CCN(C(=O)c3ccc(C)cc3)CC2)cc1 .
inactive

###

assay: growth inhibition of wild-type Mtb, BioA inhibitor project, biotin-free medium, plate reader, dry powder (AID 743070); details: M. tuberculosis wild type growth
Entries annotated with measured IC50

Record excerpt, results attached:
- O=C(Nc1ccc2snnc2c1)N1CCCCC1: 50 µM
- CC(=O)c1ccc(N2CCN(C(=O)c3ccc4c(c3)OCO4)CC2)cc1: 5 µM
- O=C(Nc1ccc2[nH]ccc2c1)N1CCN(c2ccccc2)CC1: 7 µM
- CCN(CC)c1ccc2cc(C(=O)c3cccs3)c(=O)oc2c1: 3.8 µM
- O=C(O)CC/C(=C\c1ccccc1[N+](=O)[O-])c1nc2ccccc2s1: 50 µM

Next:
Sample O=C(Nc1ccc(Cl)cc1)c1cc2nc(C3CC3)cc(C(F)(F)F)n2n1 ; IC50 observed: 50 µM

###

assay: growth inhibition of wild-type Mtb, BioA inhibitor project, biotin-free medium, plate reader, dry powder (AID 743070); details: M. tuberculosis wild type growth
Activity calls are given as the source filed them. How the calls were made is not given here.
Entries annotated with measured IC50

- CC(=O)c1ccc(N2CCN(C(=O)c3cccc(F)c3)CC2)cc1: > 50 µM (inactive)
- COc1ccc(NC(=O)N2CCN(c3ccccc3)CC2)cc1: 50 µM
- O=C(Nc1cccc(Cl)c1)N1CCN(c2ccccc2)CC1: 5 µM

Sample CC(=O)c1ccc(N2CCN(Cc3ccc4c(c3)OCO4)CC2)cc1 ; IC50 observed: 31.2 µM

Sample CC(=O)c1ccc(N2CCN(C(=O)c3cccnc3)CC2)cc1 ; IC50 observed: > 50 µM (inactive)

Sample CC(=O)c1ccc(N2CCN(C(=O)c3ccccc3)CC2)cc1 ; IC50 observed: > 50 µM (inactive)

Sample O=C(Nc1ccncc1)c1cc2nc(C3CC3)cc(C(F)F)n2n1 ; IC50 observed: 50 µM

###

assay: growth inhibition of wild-type Mtb, BioA inhibitor project, biotin-free medium, plate reader, dry powder (AID 743070); settings: M. tuberculosis wild type growth
Activity calls are given as the source filed them. No rule for the calls is given here.
Lab note: assign the record to one of active, inactive

• Cc1ccc(/C=C(\CCCC(=O)O)c2nc3ccccc3s2)cc1[N+](=O)[O-] = active
• COc1ccc(-c2cc(C(F)(F)F)n3nc(C(=O)Nc4cccnc4)cc3n2)cc1 = active
• O=C(c1ccc2c(c1)OCO2)N1CCN(c2ccc(Cl)cc2)CC1 = active
• Cc1nc2cc(NC(=O)N3CCN(c4ccccc4)CC3)ccc2o1 = active
• COc1cccc(NC(=O)CCC2CCN(C(=O)c3ccc(C(C)=O)s3)CC2)c1 = active

Tell me the recorded outcome of this test for Cc1ccc(/C=C(\CCC(=O)O)c2nc3ccccc3s2)cc1[N+](=O)[O-] .
active

Tell me the recorded outcome of this test for Cc1cccc(/C=C(\CCC(=O)O)c2nc3ccccc3s2)c1 .
active

Tell me the recorded outcome of this test for O=C(c1ccc2c(c1)OCO2)N1CCN(c2ccccc2)CC1 .
active

Tell me the recorded outcome of this test for Cc1cc(C)n2nc(C(=O)Nc3cccnc3)nc2n1 .
inactive

Tell me the recorded outcome of this test for O=C(Nc1cccnc1)c1cnn2c(C(F)F)cc(C3CC3)nc12 .
inactive

Tell me the recorded outcome of this test for CCc1ccc(C(=O)N2CCN(Cc3ccc4c(c3)OCO4)CC2)cc1 .
active

Tell me the recorded outcome of this test for O=C(Nc1cccc(F)c1)N1CCN(c2ccccc2)CC1 .
active

Tell me the recorded outcome of this test for O=C(Nc1ccc2snnc2c1)N1CCOCC1 .
inactive

Tell me the recorded outcome of this test for O=C(Nc1ccc(F)cc1)N1CCN(c2ccccc2)CC1 .
active

Tell me the recorded outcome of this test for CC(=O)c1ccc(N2CCN(C(=O)c3cccc(Cl)c3)CC2)cc1 .
active

Tell me the recorded outcome of this test for Cc1ccc(/C=C(\CCC(=O)O)c2nc3ccccc3s2)cc1 .
active

Tell me the recorded outcome of this test for O=C(O)CC/C(=C\c1ccc([N+](=O)[O-])cc1)c1nc2ccccc2s1 .
active

Tell me the recorded outcome of this test for CCOC(=O)N1CCN(C(=O)Nc2ccc3snnc3c2)CC1 .
active

Tell me the recorded outcome of this test for Cc1ccc(NC(=O)N2CCN(c3ccccc3)CC2)cc1 .
active

###

assay: growth inhibition of wild-type Mtb, BioA inhibitor project, biotin-free medium, plate reader, dry powder (AID 743070); conditions: M. tuberculosis wild type growth
Active and inactive are the calls of the source. The rule behind the calls is not given here.
Lab note: assign the record to one of label 1 (active), label 0 (inactive)

- O=C(Nc1cccnc1)c1cnn2c(C(F)(F)F)cc(-c3ccccc3)nc12: label 0
- O=C(Nc1ccc2snnc2c1)N1CCN(c2ccccc2)CC1: label 1
- CC(=O)c1ccc(N2CCN(C(=O)c3ccc(Cl)cc3)CC2)cc1: label 0
- Cc1ccc(/C=C(\CC(=O)O)c2nc3ccccc3s2)cc1[N+](=O)[O-]: label 1
- O=C(Nc1cccnc1)N1CCN(c2ccccc2)CC1: label 0

Tell me the recorded outcome of this test for CC(C)(C)c1ccc(C(=O)N2CCN(c3ccc4c(c3)OCO4)CC2)cc1 .
label 1

Tell me the recorded outcome of this test for O=C(Nc1cccnc1)c1cc2nc(-c3cccs3)cc(C(F)(F)F)n2n1 .
label 0

Tell me the recorded outcome of this test for CC(=O)c1ccc(N2CCN(C(=O)c3ccc(Br)cc3)CC2)c(F)c1 .
label 1

Tell me the recorded outcome of this test for Cc1nc2ccc(NC(=O)N3CCN(c4ccccc4)CC3)cc2s1 .
label 1

Tell me the recorded outcome of this test for CC(=O)c1ccc(N2CCN(C(=O)c3ccc(F)cc3)CC2)cc1 .
label 1

Tell me the recorded outcome of this test for O=C(c1ccc2c(c1)OCO2)N1CCN(Cc2ccccc2)CC1 .
label 0

Tell me the recorded outcome of this test for COC(=O)c1c(C(=O)OC)c(-c2cccc(F)c2)n2c1CS(=O)C2 (stereo unspecified) .
label 1

###

assay: growth inhibition of wild-type Mtb, BioA inhibitor project, biotin-free medium, plate reader, dry powder (AID 743070); details: M. tuberculosis wild type growth
Active and inactive are the calls of the source. The rule behind the calls is not given here.
Lab note: assign the record to one of active, inactive

Field: example entries. Status: answers known.
- O=C(c1ccc2c(c1)OCO2)N1CCN(c2ccc(F)cc2)CC1: active
- CC(=O)c1ccc(N2CCN(C(=O)c3ccc4c(c3)OCCO4)CC2)cc1: inactive
- Cc1ccc(-c2cc(C(F)(F)F)n3nc(C(=O)Nc4cccnc4)cc3n2)cc1: inactive

Tell me the recorded outcome of this test for CCc1ccc(N2CCN(C(=O)c3ccc4c(c3)OCO4)CC2)cc1 .
active

Tell me the recorded outcome of this test for Cc1ccccc1/C=C(\CCC(=O)O)c1nc2ccccc2s1 .
active

Tell me the recorded outcome of this test for CC(=O)c1ccc(N2CCN(C(=O)c3ccc4ncsc4c3)CC2)cc1 .
active

###

assay: growth inhibition of wild-type Mtb, BioA inhibitor project, biotin-free medium, plate reader, dry powder (AID 743070); details: M. tuberculosis wild type growth
VALUE KIND: IC50

Record excerpt, results attached:
• COc1cc(/C=C/C(=O)Nc2cccnc2)cc(OC)c1OC = 13.7 µM
• COc1cccc(C(=O)N2CCN(c3ccc(C(C)=O)cc3)CC2)c1 = 50 µM
• COc1ccc(N2CCN(C(=O)c3ccc4c(c3)OCO4)CC2)cc1 = 9.7 µM

Next:
Sample COc1cccc(NC(=O)N2CCN(c3ccccc3)CC2)c1 ; IC50 observed: 50 µM
